test-description: Cytotoxicity against HEPG2 cells
Type: cell-based
test-context: human, read-out: TC50 (the source's name)
Would you kindly list CC50 for each of these compounds?

Fill in: CC50 of COc1ccc(CNC(=O)c2ccc(C3c4nc[nH]c4CCN3c3ccc4ccccc4c3)cc2)cc1 (centres undefined) is ___
> 12.4 µM

I have this compound here, O=C(NCc1ccccc1)c1ccc(C2c3nc[nH]c3CCN2c2ccc3ccccc3c2)cc1 (centres undefined) , and I need its recorded CC50.
> 13.2 µM

Reported CC50 for COc1ccc(CNC(=O)c2ccc(C3c4nc[nH]c4CCN3Cc3cccc(Cl)c3)cc2)cc1 (stereo in doubt; 8f) : what is it?
> 12.8 µM

Given the entry COc1ccc(CNC(=O)c2ccc(C3c4nc[nH]c4CCN3Cc3cc(OC)c(OC)cc3OC)cc2)cc1 (centres undefined) , report its measured CC50.
> 11.5 µM

====

test-description: Permeability across artificial cell membrane
Format: ADME
test-context: not told; read-out: permeability
What Papp was measured for each of the following?
Write the answer as a number in ×10⁻⁶ cm/s, unit excluded.

# query: Papp of entry COc1ccc(CNC(=O)c2ccc(C3c4nc[nH]c4CCN3Cc3cccc(Cl)c3Cl)cc2)cc1 (stereo in doubt; 9a)
8

Please report the recorded Papp for COc1ccc(CNC(=O)c2ccc(C3c4nc[nH]c4CCN3Cc3cccc(Cl)c3)cc2)cc1 (stereo in doubt; 9d) .
21

====

Please respond with reported cytotoxicity for every item in the list.
test-description: Cytotoxicity against HEPG2 cells
Assay type: cell-based
test-context: human, read-out: Inhibition
Entry rule: numbers only, all in %.

Would you mind telling me what cytotoxicity value was observed for COc1ccc(CNC(=O)c2ccc(C3c4nc[nH]c4CCN3Cc3cc(OC)c(OC)cc3OC)cc2)cc1 (centres undefined) ?
20

# cytotoxicity lookup, item COc1ccc(CNC(=O)c2ccc(C3c4nc[nH]c4CCN3Cc3cccc(Cl)c3)cc2)cc1 (stereo in doubt; 8f)
25

Fill blank: measured cytotoxicity of the compound COc1ccc(CNC(=O)c2ccc(C3c4nc[nH]c4CCN3c3ccc4ccccc4c3)cc2)cc1 (centres undefined) is ____.
25

====

Tested on: Mycobacterium tuberculosis
test-description: Antibacterial activity against Mycobacterium tuberculosis
Type: functional
test-context: Mycobacterium tuberculosis; read-out: MIC
recorded-metric: MIC (µM)
Expressed in µM, but write only the number.

Which MIC is listed for COc1ccc(CNC(=O)c2ccc(C3c4nc[nH]c4CCN3Cc3cccc(Cl)c3Cl)cc2)cc1 (stereo in doubt; 8e) ?
32

What does the data say about its MIC? Entry: COc1ccc(CNC(=O)c2ccc(C3c4nc[nH]c4CCN3Cc3cc(OC)c(OC)cc3OC)cc2)cc1 (configuration not stated)
63

Any idea what MIC was measured for O=C(NCc1ccccc1)c1ccc(C2c3nc[nH]c3CCN2Cc2cccc(Cl)c2)cc1 (configuration not stated) ?
32

What MIC value was documented for this compound, COc1ccc(CNC(=O)c2ccc(C3c4nc[nH]c4CCN3Cc3cccc(Cl)c3)cc2)cc1 (stereo in doubt; 9d) ?
63

Which MIC is listed for O=C(NCc1ccccc1)c1ccc(C2c3nc[nH]c3CCN2Cc2cccc(Cl)c2Cl)cc1 (configuration not stated) ?
32

Look at this compound and give its reported MIC. O=C(NCc1ccccc1)c1ccc(C2c3nc[nH]c3CCN2c2ccc3ccccc3c2)cc1 (configuration not stated)
16

Look up MIC: COc1ccc(CNC(=O)c2ccc(C3c4nc[nH]c4CCN3c3ccc4ccccc4c3)cc2)cc1 (configuration not stated)
32
